Documented apparent KD of MS2 coat protein across a set of sequences
- Test system: MS2 coat protein
- test_summary: apparent KD of MS2 coat protein; designed switch direction (-1 OFF switch, 1 ON switch): 1; higher = weaker reporter binding
- condition: input ligand: microRNA oligo, concentration not stated
reported_property: apparent KD of MS2 coat protein (nM)

sequence | reported_property | units_of_measure | numeric_readout
AAUUUAAUACAUGAGGAUCACCCAUGUAAAUUAAUUAAGAUCUAGGAUAUCAGCUCGAUUAGAGCUGAGAAGGAGAUCACAUGU [SSNG3/19-B2] (Eterna round: R96, puzzle: Same State NG 3) | apparent KD of MS2 coat protein | nM | 12
UGUUGUAUUACAGGAUAUCUAGUAUUUUGAUUUAGAGAAGGGUAUUCACAUGAGGAUCACCCAUGUAUAUACGAGGAAGUUGUG [JMF's solution 44] (Eterna round: R96, puzzle: Same State NG 1) | apparent KD of MS2 coat protein | nM | 44
GUAAAGAAUUAAGGAUAUUGAUUACAUAUGUUUAACAUGAGGAUCACCCAUGUGGGUUGCGGUAUCGAGAAGGUAAAAUAAUAG [Mat - same State NG 2 - JL mod - D86] (Eterna round: R96, puzzle: Same State NG 2) | apparent KD of MS2 coat protein | nM | 131
GCUCGCGGCACAGGAUAUGGGUGCCUGUACAUGAGGAUCACCCAUGUUAAGGGACGGAUUACGAACCAGAAGGGUGUGGCAAGC [Reonisma] (Eterna round: R96, puzzle: Same State NG 2) | apparent KD of MS2 coat protein | nM | 294
AGCUAUUAAUCAGGAUAUAGUGACAUGAGGAUCACCCAUGUAUUGAUGAUUAAAUGUGGUCGCCGCUAGAAGGGAUUACUAACA [SameState NG2 #46] (Eterna round: R96, puzzle: Same State NG 2) | apparent KD of MS2 coat protein | nM | 23.2
GAGGGCGAAAGCAACAUGAGGAUCACCCAUGUCCUCGGAGGGCAGGAUAUCCGGCGGUAGCCGAAGGAGAAGGGUCGGUAAGAA [AK SSNG3-V2-33.1] (Eterna round: R96, puzzle: Same State NG 3) | apparent KD of MS2 coat protein | nM | 107
GUGGUCAGACAUGAGGAUCACCCAUGUGGAAUAAAUAAGGGAGAGGAUAUAAAAUAUAGGAUAUAUUAGAAGGCUCGGUUGGUG (Eterna round: R96, puzzle: Same State NG 3) | apparent KD of MS2 coat protein | nM | 82.7
AUAAGUUUGAUGCUCGUCUCUUCGUACAGACAUGAGGAUCACCCAUGUAGUCGGGAAGUAGCCCGGCCAGUAUGACC [Usraisqu] (Eterna round: R96, puzzle: Sensor for hsa-mir-208a) | apparent KD of MS2 coat protein | nM | 38.2
UGUUGUAAUACAGGAUAUCUAUUAUUUUUAUUUAGAGAAGGGUAAUCACAUGAGGAUCACCCAUGUAUAUACGAGGAAGAAGAG [JMF's solution 4] (Eterna round: R96, puzzle: Same State NG 1) | apparent KD of MS2 coat protein | nM | 126

----------
- Tested on: K4 kissing-loop RNA reporter;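 note: bound reporter read as fluorescence of individual clusters on recovered sequencing chips by microscopy, with normalized cluster intensities fitted with a binding model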
- test_summary: apparent KD of K4 kissing-loop reporter; higher = weaker reporter binding
- condition: Eterna round: R107; input ligand: none
reported_property: apparent KD of K4 kissing-loop reporter (µM)

sequence | units_of_measure | numeric_readout
AAUCGCAGUGAUGUUGCGAUUCCGUUGAGGGAGGAUAUUGGUAAUACAAGAAGGUUCGGUUACGGGAGAUGUUAGUAAUAGGGCC [Exclusion FMN A GF21] | µM | 0.0618
UAGCGGGCGAUUCGACGUGCGUCCAGUCAUCGAGGACCGGUACGGCCGCCACUCGCCGGAGUGAUGUUCCGGUACGUCAUAUAAU [theeternabot_sameState_KL_Trp_A_35] | µM | 0.398
AUUUUUUUGUCAGGAUAUUAGUGUGCGUUUGGUUUGUUAGUGAUGUUGAUAUUUUGUUUAUGUAUUUAAGAAGGGAUUUAGCGGU [aaeatemullin] | µM | 0.501
GGUGUUGUUUGUGCCGUUUUCCUCGUUCCUCGAGGACCGGUACGGCCGCCACUCGAGUGAUGUUUGGGUAGCGAUCCCUGUUAGU [Bdazzled - #9 Exc. Tryptophan A] | µM | 0.871
CGCGCGCGUUUGAGAGGGCGCGCGCGAAGUGAGGAUAUUUAGGGAGAAAGAAGGCACUAUAAAAUAUAGUGAUGUUAUAUAAGGG [SSFMNA.F] | µM | 0.288
UUAAUAAUUCAAGGAUAUGUUUUCUAUUUCGAGUGAUGUUCGGAAUUAAUAAAUUUAAAAGAUUAUACAGAAGGUGAUAGAUAGU [Cynwulf-mod#3] | µM | 0.0909
UGUGUUUACCUGACUCAGUGAUGUUGAGAAGGAGCGUGCAAACGCACAGGUAGGUCGCUCAACCUAAAUUCAGGUGAGCACUAAA | µM | 0.453
GGGUUUGCCGGAAGGAGCGCACUAUGGAGUGAUGUUCCAUGACCGCACAGCUUGCGGUCAGUGCAGGUAGGUCGCCGGUAACGUU [Enatbeve] | µM | 0.18
AAGGUUCGUGGAAGGAGCGCCCGUGCGACUCGUUCAGUAAGUGAAGUCCGAGUGAUGUUCGGGCAGGUAGGUCGCCACGGGCAAA [Usontezaon] | µM | 0.16
UGGAUAUAGUGAUGUUAUAUAGAGAUGGAUACCAGUUAAGAGAAUAGCCCUUGGCAGCCGAAAGAAGUAUCAUUAGAGAAGAAUG [ExTheophyl.Ad] | µM | 0.239
UGCAGUGAUGUUGCUAUUUUUCUUGAUUAACGAGGACCGGUACGGCCGCCACUCGAUUUCUCUCUAAUCCAGUAUGUUGUUUAGU [JR_ExcTryptoA_Sub001] | µM | 0.121
UCGAAGGAUGGAAGGAGCGCUCGUCAGCCCUGCGAGUGAUGUUCGUGGGUAAAUAGUCGCGAGCAGGUAGGUCGCCAUCUUGAGC [Ritera] | µM | 0.13
GUUAUAUAAAUAAGAAAUAAAAUAAGGGAAGGAGCGCCGAGAAAGGCAGGUAGGUCGCCCAGUGAUGUUGGGAUUAAUUAAUUAG | µM | 0.0393

----------
Documented apparent KD of MS2 coat protein across a set of sequences
- Test system: MS2 coat protein
- test_summary: apparent KD of MS2 coat protein; designed switch direction (-1 OFF switch, 1 ON switch): -1; higher = weaker reporter binding
- condition: input ligand: microRNA oligo, concentration not stated
reported_property: apparent KD of MS2 coat protein (nM)

sequence | reported_property | units_of_measure | numeric_readout
ACAUGAGGAUCACCCAUGUCUGGCUGGUCUGCUCCGGCUGUUGAGGAUAUAGUUCGGUGUUCGCGCUAGAAGGUGAGGGCUGGC [Aenatbe mod 37] (Eterna round: R96, puzzle: Exclusion NG 3) | apparent KD of MS2 coat protein | nM | 23.1
AAAAGUUGGUAAGGAUAUCCCACAUUAUUCUGACCCGUGCAAGCUACAUGAGGAUCACCCAUGUGGGAGAAGGUGCGUUAAAGA [Zatiisor] (Eterna round: R96, puzzle: Exclusion NG 2) | apparent KD of MS2 coat protein | nM | 55.1
UUUAAUUUUUUUUUUUUACAAGCUUUUUGCUCGUCUUAUACAUGAGGAUCACCCAUGUGGGUGGAAAAUAAAUUAUC [JMF 92] (Eterna round: R96, puzzle: Sensor v3, turn-off variant 2) | apparent KD of MS2 coat protein | nM | 232

----------
- System: MS2 coat protein
- test_summary: apparent KD of MS2 coat protein; designed switch direction (-1 OFF switch, 1 ON switch): -1; higher = weaker reporter binding
- condition: input ligand: none
Documented apparent KD of MS2 coat protein across a set of sequences

sequence | apparent KD of MS2 coat protein [nM]
CACCGUAACAGAGGAUAUGAAACAUGAGGAUCACCCAUGUAAUAAAUGAGAAUUUCGAAUGUACCUCAGAAGGCUGAAACCGGC [Ostricism 82 - Jieux - Exclusion NG 2] (Eterna round: R96, puzzle: Exclusion NG 2) | 43
UUUUGAAAGUGAGGAUAUGACAUGAGGAUCACCCAUGUAAAGGGAGUUGACUAUAUAGAAAGAUAUCAGAAGGCACAAAUGUUU [JR_ExcNG2_Sub002] (Eterna round: R96, puzzle: Exclusion NG 2) | 321
UCUUGUGUUGAGGAUAUGCGCCGGCUCGCUGGCGCAGAAGGCGGCACAUGAGGAUCACCCAUGUCAGUUCGCGC [salish99_ex6_r004_007] (Eterna round: R97, puzzle: Exclusion 6) | 205
GUACUGACAGGAUAUACAUGAGGAUCACCCAUGUGCCUUAGCGCUACAAAAGUAGCGCGUAGAAGGGUCUGUAC [Omei Ex3 Model Bachelor's Dilema v16] (Eterna round: R97, puzzle: Exclusion 3) | 14.7
